System: Setaria faberi
Assay: Post-emergence herbicidal activity, SETFA
Format: in vivo
Parameters: key: 5=total damage to plant; 0=no damage to plant
Conditions: 1000 g/Ha, sprayed post-emergence (8 days cultivation), evaluated after 13 days, scale 0-5
experimental readout: SETFA damage score, application post-emergence
Write the number on its own, no unit after it.

For Setaria faberi, provide SETFA damage score, application post-emergence of CON1C(=O)N(c2cc(C(C)(C)C#N)ncn2)C(O)C1C (stereo not drawn) [Example A25] please. 5

Would you mind doing COC1C(O)N(c2cc(C(C)(C)C)ncn2)C(=O)N1C (stereo not drawn) [Example A11] as well? 5

Would you mind doing CN1C(=O)N(c2cc(C(C)(C)C)ncn2)C(O)C1C(F)(F)F (stereo not drawn) [Example A31] as well? 5

====

For each entry below, report its ECHCG damage score, application post-emergence value.
Test system: Echinochloa crus-galli
Test: Post-emergence herbicidal activity, ECHCG
Format: in vivo
Conditions: 1000 g/Ha, sprayed post-emergence (8 days cultivation), evaluated after 13 days, scale 0-5
Write the number on its own, no unit after it.

Recorded ECHCG damage score, application post-emergence of CON1CC(O)N(c2cc(C(C)(C)C)ncn2)C1=O (centres unmarked) [Example A23] , please. 4

Would you mind doing CC1C(OC(=O)Nc2ccc([N+](=O)[O-])cc2)N(c2cc(C(C)(C)C)ncn2)C(=O)N1C (centres unmarked) [Example A36] as well? 5

Would you mind doing CCC1C(O)N(c2cc(C(C)(C)C)ncn2)C(=O)N1C (centres unmarked) [Example A16] as well? 5

Would you mind doing C=CC1C(O)N(c2cc(C(C)(C)C)ncn2)C(=O)N1C (centres unmarked) [Example A29] as well? 4

Would you mind doing COC1C(O)N(c2cc(C(C)(C)C)ncn2)C(=O)N1OC (centres unmarked) [Example A7] as well? 4

Would you mind doing CN1CC(O)N(c2cc(C(F)(F)Cl)ncn2)C1=O (centres unmarked) [Example A39] as well? 5

Would you mind doing CN1C(=O)N(c2cc(C(C)(C)C)ncn2)C(O)C1C(F)(F)F (centres unmarked) [Example A31] as well? 3

Would you mind doing CCOC1C(O)N(c2cc(C(C)(C)C)ncn2)C(=O)N1C (centres unmarked) [Example A5] as well? 5

Would you mind doing C=CCC1C(O)N(c2cc(C(C)(C)C)ncn2)C(=O)N1C (single isomer, unassigned) [Example A33] as well? 5

Would you mind doing CC1NC(=O)N(c2cc(C(C)(C)C)ncn2)C1O (centres unmarked) [Example A32] as well? 2

Would you mind doing CN1CC(O)N(c2cc(C(C)(C)C#N)ncn2)C1=O (centres unmarked) [Example A2] as well? 5

Would you mind doing CON1C(=O)N(c2cc(C(C)(C)C)ncn2)C(O)C1C (centres unmarked) [Example A6] as well? 5

Would you mind doing CN1CC(O)N(c2cc(C(C)(C)C)ncn2)C1=O (centres unmarked) [Example A1] as well? 5

Would you mind doing CN1C(=O)N(c2cc(C(C)(C)C)ncn2)C(O)C1O (centres unmarked) [Example A4] as well? 2

Would you mind doing CC1C(O)N(c2cc(C(C)(C)F)ncn2)C(=O)N1C (centres unmarked) [Example A20] as well? 5

Would you mind doing CN1CC(O)N(c2cc(C(C)(C)F)ncn2)C1=O (centres unmarked) [Example A22] as well? 5

Would you mind doing COC1C(O)N(c2cc(C(C)(C)C)ncn2)C(=O)N1C (centres unmarked) [Example A11] as well? 4

Would you mind doing CCOC1C(O)N(c2cc(C(C)(C)C#N)ncn2)C(=O)N1C (centres unmarked) [Example A18] as well? 5

Would you mind doing CCCOC1C(OCCC)N(c2cc(C(C)(C)C)ncn2)C(=O)N1C (centres unmarked) [Example A28] as well? 0

Would you mind doing CC1C(O)N(c2cc(C(C)(C)C)ncn2)C(=O)N1C (centres unmarked) [Example A3] as well? 5
